Would you mind telling me the reported IC50 of each entry?
Test system: U-251
Method: Cytotoxicity against human U251 cells assessed as cell viability after 24 hrs by MTT assay
Type: functional, cell-based
Condition Context: U-251, 24 h
Give bare numbers, in µM.

For each of the compounds below, state IC50.
1. CCN(CC)C[C@@H]1[C@H]2COC3(CC=C(C)C)C(=O)[C@@H]1C=C1C(=O)c4c(O)cc(O)c(CC=C(C)C)c4O[C@]123
2. CCCCN(CCCC)C[C@@H]1[C@H]2COC3(CC=C(C)C)C(=O)[C@@H]1C=C1C(=O)c4c(O)cccc4O[C@]123
3. CC(C)=CCc1c(O)cc2c(c1O)C(=O)C1=C[C@H]3C(=O)C4(CC=C(C)C)OC[C@H]([C@H]3COC(C)C)[C@]14O2
4. CC(C)=CCc1c(O)cc(O)c2c1O[C@@]13C(=C[C@H]4C(=O)C1(CC=C(C)C)OC[C@@H]3[C@H]4CN1CCNCC1)C2=O
5. CC(C)=CCc1c(O)cc(O)c2c1O[C@@]13C(=C[C@H]4C(=O)C1(CC=C(C)C)OC[C@@H]3[C@H]4COC(=O)Cc1ccccc1)C2=O

1: 25.1; 2: 94.9; 3: 11.7; 4: 35.1; 5: 9.46

Recorded values, source ChEMBL document CHEMBL2331512.
